- tgt: furin (Homo sapiens)
- Construct: made in house; host or cells: Drosophila S2 cells (Invitrogen expression system)
- assay.remarks: biochemical
- run.conditions: furin, Pyr-RTKR-AMC substrate; optimization of the inhibitory peptides (Table 3); read-out: Ki
Residues, ends and D or L forms follow the SMILES beside them.

{"compound": "C[C@H](NC(=O)[C@H](CCCNC(=N)N)NC(=O)[C@H](CCC(N)=O)NC(=O)[C@@H]1CCCN1C(=O)[C@@H](N)[C@@H](C)O)C(=O)N[C@@H](CCCNC(=N)N)C(=O)N[C@@H](CCCNC(=N)N)C(=O)N[C@@H](CCCNC(=N)N)C(=O)N[C@@H](CCCCN)C(=O)N[C@@H](CCCCN)C(=O)N[C@H](CCCNC(=N)N)C(=O)NCC(N)=O", "Ki": "> 100 nM"}
{"compound": "C[C@H](NC(=O)[C@H](CCCNC(=N)N)NC(=O)[C@H](CCC(N)=O)NC(=O)[C@@H]1CCCN1C(=O)[C@@H](N)[C@@H](C)O)C(=O)N[C@@H](CCCNC(=N)N)C(=O)N[C@@H](CCCNC(=N)N)C(=O)N[C@@H](CCCNC(=N)N)C(=O)N[C@@H](CCCCN)C(=O)N[C@@H](CCCCN)C(=O)N[C@@H](CCCNC(=N)N)C(=O)NCC(N)=O", "Ki": "> 100 nM"}
{"compound": "C[C@@H](O)[C@H](N)C(=O)N1CCC[C@H]1C(=O)N[C@@H](CCC(N)=O)C(=O)N[C@@H](CCCNC(=N)N)C(=O)N[C@@H](CO)C(=O)N[C@@H](CCCNC(=N)N)C(=O)N[C@@H](CCCNC(=N)N)C(=O)N[C@@H](CCCNC(=N)N)C(=O)N[C@@H](CCCCN)C(=O)N[C@@H](CCCCN)C(=O)N[C@@H](CCCNC(=N)N)C(=O)NCC(N)=O (H-TPQRSRRRKKRG-NH2)", "Ki": "> 100 nM"}

###

- tgt: furin (Homo sapiens, UniProt P09958)
- Construct: made in house; host or cells: Drosophila S2 cells (Invitrogen expression system)
- Sequence (P09958 108-794 limits assumed): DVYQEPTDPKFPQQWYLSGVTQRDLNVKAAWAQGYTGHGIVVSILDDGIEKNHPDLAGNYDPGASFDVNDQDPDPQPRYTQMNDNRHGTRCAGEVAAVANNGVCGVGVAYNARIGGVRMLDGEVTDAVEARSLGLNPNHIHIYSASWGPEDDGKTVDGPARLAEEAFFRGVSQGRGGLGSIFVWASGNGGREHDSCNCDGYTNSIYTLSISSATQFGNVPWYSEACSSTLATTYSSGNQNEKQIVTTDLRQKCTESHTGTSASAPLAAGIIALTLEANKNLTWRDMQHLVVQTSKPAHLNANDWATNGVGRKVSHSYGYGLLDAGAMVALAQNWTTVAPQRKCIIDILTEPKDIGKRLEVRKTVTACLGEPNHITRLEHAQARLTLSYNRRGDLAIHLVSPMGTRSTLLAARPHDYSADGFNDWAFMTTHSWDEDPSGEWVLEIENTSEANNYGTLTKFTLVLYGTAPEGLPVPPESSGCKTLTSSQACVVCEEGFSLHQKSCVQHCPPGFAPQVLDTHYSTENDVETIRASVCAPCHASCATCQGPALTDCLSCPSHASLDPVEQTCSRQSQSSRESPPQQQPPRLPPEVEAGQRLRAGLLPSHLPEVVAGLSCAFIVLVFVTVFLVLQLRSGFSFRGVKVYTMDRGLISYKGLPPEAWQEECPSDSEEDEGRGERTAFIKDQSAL
- assay.remarks: biochemical
- run.conditions: furin, Pyr-RTKR-AMC substrate; alanine scanning mutagenesis of the H5 furin cleavage sequence (Table 2); read-out: Ki
Residues, ends and D or L forms follow the SMILES beside them.
Ki reference

{"compound": "C[C@H](NC(=O)[C@H](CCCNC(=N)N)NC(=O)[C@H](CCC(=O)O)NC(=O)[C@H](CCCNC(=N)N)NC(=O)[C@@H]1CCCN1C(=O)[C@@H](N)[C@@H](C)O)C(=O)N[C@@H](CCCNC(=N)N)C(=O)N[C@@H](CCCCN)C(=O)N[C@@H](CCCCN)C(=O)N[C@@H](CCCNC(=N)N)C(N)=O (H-TPRERARKKR-NH2)", "Ki": "> 100 nM"}
{"compound": "CC(C)[C@H](NC(=O)[C@H](CCCNC(=N)N)NC(=O)[C@H](CCCCN)NC(=O)[C@H](CCCCN)NC(=O)[C@H](CCCNC(=N)N)NC(=O)[C@H](CCCNC(=N)N)NC(=O)[C@H](CCCNC(=N)N)NC(=O)[C@H](CCC(=O)O)NC(=O)[C@H](CCCNC(=N)N)NC(=O)[C@H](C)NC(=O)[C@@H](N)[C@@H](C)O)C(N)=O (H-TARERRRKKRV-NH2)", "Ki": "> 100 nM"}

###

Ki reference
- tgt: furin (Homo sapiens)
- Construct: made in house; host or cells: Drosophila S2 cells (Invitrogen expression system)
- assay.remarks: biochemical
- run.conditions: furin, Pyr-RTKR-AMC substrate; alanine scanning mutagenesis of the H5 furin cleavage sequence (Table 2); read-out: Ki
Residues, ends and D or L forms follow the SMILES beside them.
measurement.name: Ki

{"compound": "CC(C)[C@H](NC(=O)[C@H](CCCNC(=N)N)NC(=O)[C@H](CCCCN)NC(=O)[C@H](CCCCN)NC(=O)[C@H](CCCNC(=N)N)NC(=O)[C@H](CCCNC(=N)N)NC(=O)[C@H](C)NC(=O)[C@H](C)NC(=O)[C@H](C)NC(=O)[C@@H]1CCCN1C(=O)[C@@H](N)[C@@H](C)O)C(N)=O (H-TPAAARRKKRV-NH2)", "tgt": "furin (Homo sapiens)", "result": "> 100 nM"}
{"compound": "C[C@H](NC(=O)[C@H](C)NC(=O)[C@H](CCCCN)NC(=O)[C@H](CCCNC(=N)N)NC(=O)[C@H](CCCNC(=N)N)NC(=O)[C@H](CCCNC(=N)N)NC(=O)[C@H](CCC(=O)O)NC(=O)[C@H](CCCNC(=N)N)NC(=O)[C@@H]1CCCN1C(=O)[C@@H](N)[C@@H](C)O)C(N)=O (H-TPRERRRKAA-NH2)", "tgt": "furin (Homo sapiens)", "result": "> 100 nM"}
{"compound": "CC(C)[C@H](NC(=O)[C@H](CCCNC(=N)N)NC(=O)[C@H](CCCCN)NC(=O)[C@H](CCCCN)NC(=O)[C@H](CCCNC(=N)N)NC(=O)[C@H](CCCNC(=N)N)NC(=O)[C@H](CCCNC(=N)N)NC(=O)[C@H](CCC(=O)O)NC(=O)[C@H](C)NC(=O)[C@@H]1CCCN1C(=O)[C@@H](N)[C@@H](C)O)C(N)=O (H-TPAERRRKKRV-NH2)", "tgt": "furin (Homo sapiens)", "result": "> 100 nM"}

###

pKi reference
- tgt: furin (Homo sapiens, UniProt P09958)
- Construct: made in house; host or cells: Drosophila S2 cells (Invitrogen expression system)
- assay.remarks: biochemical
- run.conditions: furin, Pyr-RTKR-AMC substrate; optimization of the inhibitory peptides (Table 3); read-out: Ki
pKi: −log10 of the molar value. Non-standard residues stand in square brackets, D forms with d. Residues, ends and D or L forms follow the SMILES beside them.

{"compound": "C[C@@H](O)[C@H](N)C(=O)N1CCC[C@H]1C(=O)N[C@@H](CCC(N)=O)C(=O)N[C@@H](CCCNC(=N)N)C(=O)N[C@@H](CS)C(=O)N[C@@H](CCCNC(=N)N)C(=O)N[C@@H](CCCNC(=N)N)C(=O)N[C@@H](CCCNC(=N)N)C(=O)N[C@@H](CCCCN)C(=O)N[C@@H](CCCCN)C(=O)N[C@@H](CCCNC(=N)N)C(=O)NCC(N)=O", "pKi": "< 7.00"}
{"compound": "C[C@@H](O)[C@H](N)C(=O)N1CCC[C@H]1C(=O)N[C@@H](CCC(N)=O)C(=O)N[C@@H](CCCNC(=N)N)C(=O)N[C@@H](CC(=O)O)C(=O)N[C@@H](CCCNC(=N)N)C(=O)N[C@@H](CCCNC(=N)N)C(=O)N[C@@H](CCCNC(=N)N)C(=O)N[C@@H](CCCCN)C(=O)N[C@@H](CCCCN)C(=O)N[C@@H](CCCNC(=N)N)C(=O)NCC(N)=O (H-TPQRDRRRKKRG-NH2)", "pKi": "< 7.00"}
{"compound": "CSCC[C@H](NC(=O)[C@H](CCCNC(=N)N)NC(=O)[C@H](CCCCN)NC(=O)[C@H](CCCCN)NC(=O)[C@H](CCCNC(=N)N)NC(=O)[C@H](CCCNC(=N)N)NC(=O)[C@H](CCCNC(=N)N)NC(=O)[C@H](C)NC(=O)[C@H](CCCNC(=N)N)NC(=O)[C@H](CCC(N)=O)NC(=O)[C@@H]1CCCN1C(=O)[C@@H](N)[C@@H](C)O)C(N)=O (H-TPQRARRRKKRM-NH2)", "pKi": 7.24}
{"compound": "CC(C)[C@H](NC(=O)[C@H](CCCNC(=N)N)NC(=O)[C@H](CCC(N)=O)NC(=O)[C@@H]1CCCN1C(=O)[C@@H](N)[C@@H](C)O)C(=O)N[C@@H](CCCNC(=N)N)C(=O)N[C@@H](CCCNC(=N)N)C(=O)N[C@@H](CCCNC(=N)N)C(=O)N[C@@H](CCCCN)C(=O)N[C@@H](CCCCN)C(=O)N[C@@H](CCCNC(=N)N)C(=O)NCC(N)=O (H-TPQRVRRRKKRG-NH2)", "pKi": "< 7.00"}
{"compound": "C[C@H](NC(=O)[C@H](CCCNC(=N)N)NC(=O)[C@H](CCC(N)=O)NC(=O)[C@@H]1CCCN1C(=O)[C@@H](N)[C@@H](C)O)C(=O)N[C@@H](CCCNC(=N)N)C(=O)N[C@@H](CCCNC(=N)N)C(=O)N[C@@H](CCCNC(=N)N)C(=O)N[C@@H](CCCCN)C(=O)N[C@@H](CCCCN)C(=O)N[C@@H](CCCNC(=N)N)C(=O)N[C@H](CCCNC(=N)N)C(N)=O (H-TPQRARRRKKR[dR]-NH2)", "pKi": "< 7.00"}
{"compound": "CSC[C@H](NC(=O)[C@H](CCCNC(=N)N)NC(=O)[C@H](CCCCN)NC(=O)[C@H](CCCCN)NC(=O)[C@H](CCCNC(=N)N)NC(=O)[C@H](CCCNC(=N)N)NC(=O)[C@H](CCCNC(=N)N)NC(=O)[C@H](C)NC(=O)[C@H](CCCNC(=N)N)NC(=O)[C@H](CCC(N)=O)NC(=O)[C@@H]1CCCN1C(=O)[C@@H](N)[C@@H](C)O)C(N)=O (H-TPQRARRRKKRC(Me)-NH2)", "pKi": 7.03}
{"compound": "C[C@@H](O)[C@H](N)C(=O)N1CCC[C@H]1C(=O)N[C@@H](CCCN=C(N)N)C(=O)NCC(=O)N[C@@H](CCCN=C(N)N)C(=O)N[C@@H](CCCN=C(N)N)C(=O)N[C@@H](CCCN=C(N)N)C(=O)N[C@@H](CCCCN)C(=O)N[C@@H](CCCCN)C(=O)N[C@@H](CCCN=C(N)N)C(=O)NCC(N)=O (H-TPRGRRRKKRG-NH2)", "pKi": 7.33}
{"compound": "C[C@H](NC(=O)[C@H](CCCNC(=N)N)NC(=O)[C@H](CCC(N)=O)NC(=O)[C@@H]1CCCN1C(=O)[C@@H](N)[C@@H](C)O)C(=O)N[C@@H](CCCNC(=N)N)C(=O)N[C@@H](CCCNC(=N)N)C(=O)N[C@@H](CCCNC(=N)N)C(=O)N[C@@H](CCCCN)C(=O)N[C@@H](CCCCN)C(=O)N[C@@H](CCCNC(=N)N)C(=O)N[C@@H](Cc1c[nH]cn1)C(N)=O (H-TPQRARRRKKRH-NH2)", "pKi": "< 7.00"}
{"compound": "C[C@H](NC(=O)[C@H](CCCNC(=N)N)NC(=O)[C@H](CCC(N)=O)NC(=O)[C@@H]1CCCN1C(=O)[C@@H](N)[C@@H](C)O)C(=O)N[C@@H](CCCNC(=N)N)C(=O)N[C@@H](CCCNC(=N)N)C(=O)N[C@@H](CCCNC(=N)N)C(=O)N[C@@H](CCCCN)C(=O)N[C@@H](CCCCN)C(=O)N[C@@H](CCCNC(N)=O)C(=O)NCC(N)=O", "pKi": "< 7.00"}
{"compound": "CC(C)[C@H](NC(=O)[C@H](CCCNC(=N)N)NC(=O)[C@H](CCCCN)NC(=O)[C@H](CCCCN)NC(=O)[C@H](CCCNC(=N)N)NC(=O)[C@H](CCCNC(=N)N)NC(=O)[C@H](CCCNC(=N)N)NC(=O)[C@H](C)NC(=O)[C@H](CCCNC(=N)N)NC(=O)[C@H](CCC(N)=O)NC(=O)[C@@H]1CCCN1C(=O)[C@@H](N)[C@@H](C)O)C(N)=O (H-TPQRARRRKKRV-NH2)", "pKi": 7.32}
{"compound": "C[C@H](NC(=O)[C@H](CCCNC(=N)N)NC(=O)[C@H](CCC(N)=O)NC(=O)[C@@H]1CCCN1C(=O)[C@@H](N)[C@@H](C)O)C(=O)N[C@@H](CCCNC(=N)N)C(=O)N[C@@H](CCCNC(=N)N)C(=O)N[C@@H](CCCNC(=N)N)C(=O)N[C@@H](CCCCN)C(=O)N[C@@H](CCCCN)C(=O)N[C@@H](CCCNC(=N)N)C(=O)N[C@@H](CO)C(N)=O (H-TPQRARRRKKRS-NH2)", "pKi": "< 7.00"}
